B1: RNF115 peptide 67-82 (E3 ubiquitin-protein ligase RNF115), 16-mer library wild type / MDM2 SWIB (MDM2 SWIB/MDM2 domain, residues 17-125) (parent)
chain 1: TTTHFAELWGHLDHTM
chain 2: SQIPASEQETLVRPKPLLLKLLKSVGAQKDTYTMKEVLFYLGQYIMTKRLYDEKQQHIVYCSNDLLGDLFGVPSFSVKEHRKIYTMIYRNLVVVNQQESSDSGTSVSEN

Variants of: B1
Experiment: proteomic peptide phage display deep mutational scan (ProP-PD DMS): M13 P8 16-mer library selected against immobilised GST-tagged bait for four days (rounds), NGS of the eluted pools per day and pseudo-replica
Conditions: with MDM2 SWIB (MDM2 SWIB/MDM2 domain, residues 17-125); bait immobilised on MaxiSorp plates (10 µg), library pre-cleared on GST, 2 h binding at 4 °C, five washes; one round per day, days 1-4; value from days 2 and 3; keep out of graded; scale: average fractional NGS count over selection days 2 and 3
Quantity Name: screen value
Reply: number alone, nothing else.

Prompt: Value lookup for screen value; key = chain 1 M16H
Response: 4.26e-05

Prompt: Value lookup for screen value; key = chain 1 T15R
Response: 5.55e-05

Prompt: Value lookup for screen value; key = chain 1 G10R
Response: 2.89e-05

Prompt: Value lookup for screen value; key = chain 1 E7G
Response: 0

Prompt: Value lookup for screen value; key = chain 1 G10E
Response: 8.15e-05

More entries:
Prompt: Value lookup for screen value; key = chain 1 W9G
Response: 0.000116

Prompt: Value lookup for screen value; key = chain 1 A6Y
Response: 0.000156

Prompt: Value lookup for screen value; key = chain 1 L8P
Response: 1.29e-05
